- EXPERIMENTAL_DETAILS: endothelial E-selectin expression blockers – imaging, HUVEC, immunofluorescence, MLSMR starter and 10KST1 sets, primary screen (AID 487);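 further: signal is fraction of cell area covered by stained E-selectin grains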
- CONDITION_CONTEXT: HUVEC TNFalpha-induced E-selectin immunofluorescence imaging, at 2 µM; stronger effect = higher value
Record Satisfied whenever inhibition is at -90% or higher; record Not satisfied when lower.

input: Answer whether inhibition of O=C1C2C3C=CC(C3=C3CCCCC3)C2C(=O)N1c1ccccc1 (centres undefined) is greater than or equal to -90%.
output: Satisfied

input: Does the reported inhibition for Cc1ccc(-n2nc(-c3cccs3)cc2C(=O)NCC2CCCO2)c(C)c1 (centres undefined) fall at or above the -90% mark?
output: Satisfied

input: Decide: is the reported value of inhibition for Cn1c(=O)c2c(nc(SCCCC#N)n2Cc2c(F)cccc2Cl)n(C)c1=O equal to or greater than -90%?
output: Satisfied

input: Is inhibition for Cc1ccc(S(=O)(=O)C2(C(=O)Nc3cccnc3)CC2)cc1 at or above -90%?
output: Not satisfied

input: State whether the measured inhibition reaches -90%, counting equality as reaching it, for O=C(c1ccc(Cl)cc1)N1CCCOC1
output: Satisfied

input: hey, is inhibition for this one >= -90%? Cc1ccc(-c2nc(N)n(C(=O)c3cccnc3)n2)cc1
output: Not satisfied

input: Confirm if inhibition reported for the compound CCOC(=O)C1CCN(CC(=O)c2c(C)[nH]c3ccccc23)CC1 is -90% or above.
output: Satisfied

input: Please tell me: is the compound Cc1ccc(S(=O)(=O)N2CCCN(S(=O)(=O)C3CCS(=O)(=O)C3)CC2)cc1 (centres undefined) at or over -90% in terms of inhibition?
output: Not satisfied

###

For each record, write down the corresponding inhibition.
- EXPERIMENTAL_DETAILS: endothelial E-selectin expression blockers – imaging, HUVEC, immunofluorescence, MLSMR starter and 10KST1 sets, primary screen (AID 487);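 further: signal is fraction of cell area covered by stained E-selectin grains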
- CONDITION_CONTEXT: HUVEC TNFalpha-induced E-selectin immunofluorescence imaging, at 2 µM; stronger effect = higher value
Numbers only, in %.

MOLECULE: Cc1nnc(NC(=O)CSc2nnc(-c3ccc(S(=O)(=O)N4CCCC4)cc3)n2C)s1
inhibition [%]: -21.6
//
MOLECULE: CCC1(C)Cc2c(C#N)c(N)n(-c3ccccc3)c(=O)c2CO1 (stereo unspecified)
inhibition [%]: -59.9
//
MOLECULE: COCCn1nnnc1C(c1cc2ccc(OC)cc2[nH]c1=O)N1CCc2ccccc2C1 (stereo unspecified)
inhibition [%]: -43
//
MOLECULE: CC(=O)c1ccc(NC(=O)CSc2nnc(-c3ccoc3C)n2Cc2ccccc2)cc1
inhibition [%]: -35.8
//
MOLECULE: CN1CC=C2C(C#N)=C(N)C(C#N)(C#N)C(c3cccc(Cl)c3Cl)C2C1 (stereo unspecified)
inhibition [%]: -13.9

Fill in inhibition for each of the 4 molecules listed.
1. COC(=O)CCN(C(=O)c1ccc2c(c1)OCO2)c1ccccn1
2. Cc1c(C(=O)NCc2cccnc2)sc2ncn(CC(=O)N3CCCCC3C)c(=O)c12 (stereo unspecified)
3. O=C(Nc1ccc(F)cc1F)NC1CC(=O)N(Cc2ccccc2)C1 (stereo unspecified)
4. CSCC[C@@H](Nc1nc(-c2ccccc2)nc2c1oc1ccccc12)C(=O)O

output:
1. -0.1
2. -51.3
3. 4.4
4. -92.1

For every item in the list below, what is its measured inhibition?
1. O=C(NCc1cccs1)C(Cc1ccccc1)n1cccc1 (stereo unspecified)
2. CCC(=O)N1CCc2cc(Br)cc(S(=O)(=O)C3(C(=O)OC)CC3)c21
3. COc1ccc(C2C(C(C)=O)=C(C)N=c3s/c(=C/c4ccc5c(c4)OCO5)c(=O)n32)cc1 (stereo unspecified)
4. Cc1cc(Br)c(S(=O)(=O)n2nnc3ccccc32)cc1C
5. CCC(=O)Nc1nn(C)c2nc3c(C)cccc3cc12
6. COCCN(CCOC)C(=O)CCn1c(=O)oc2ccccc21
7. COC(=O)c1sc(N)c(C(=O)OC)c1COC(=O)C1CC(=O)N(Cc2ccco2)C1 (stereo unspecified)

output:
1. -25.8
2. 3.4
3. -0.5
4. 29
5. -53.9
6. 37.7
7. -45.6

Sourced from PubChem BioAssay
